# experiment-summary: Serum and brain levels of tadalafil after oral administration (HPLC-MS)
# Assay type: in vivo, Mouse
# settings: mouse, oral, 15 mg/Kg; from logBB of the three brain areas
value-kind: Kp at 90 min

Give reported Kp at 90 min value for CN1CC(=O)N2[C@H](c3ccc4c(c3)OCO4)c3[nH]c4ccccc4c3C[C@@H]2C1=O [tadalafil]
~0.12
